B1: HDAC6 (parent)
chain: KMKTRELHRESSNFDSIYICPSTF

Variants of: B1
Experiment: protein stability index of a GFP-peptide fusion (GPS, HEK-293T) (PSI 1-6); higher = more stable;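 note: lentivirally expressed fusions sorted by FACS into six bins by GFP to DsRed ratio, PSI derived from sequencing read proportions per bin multiplied by bin number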
Settings: c terminus: a fixed tail appended
Reported protein stability index values are given for each entry in this list.

[
  {
    "mutation": "I19R",
    "protein stability index": 2.47
  },
  {
    "mutation": "R5A",
    "protein stability index": 1.98
  },
  {
    "mutation": "T4F",
    "protein stability index": 2.11
  },
  {
    "mutation": "Y18V",
    "protein stability index": 2.86
  },
  {
    "mutation": "S22L",
    "protein stability index": 1.42
  },
  {
    "mutation": "S16P",
    "protein stability index": 2.47
  },
  {
    "mutation": "M2Y",
    "protein stability index": 2.11
  },
  {
    "mutation": "S16D",
    "protein stability index": 2.68
  },
  {
    "mutation": "R9M",
    "protein stability index": 1.84
  },
  {
    "mutation": "H8L",
    "protein stability index": 1.97
  },
  {
    "mutation": "S16A",
    "protein stability index": 1.88
  },
  {
    "mutation": "H8C",
    "protein stability index": 1.6
  },
  {
    "mutation": "H8M",
    "protein stability index": 1.97
  },
  {
    "mutation": "T23W",
    "protein stability index": 1.62
  },
  {
    "mutation": "L7M",
    "protein stability index": 1.46
  },
  {
    "mutation": "F14L",
    "protein stability index": 2.41
  },
  {
    "mutation": "K1W",
    "protein stability index": 1.98
  },
  {
    "mutation": "T4C",
    "protein stability index": 1.34
  },
  {
    "mutation": "I17R",
    "protein stability index": 2.97
  },
  {
    "mutation": "D15R",
    "protein stability index": 1.89
  },
  {
    "mutation": "S12R",
    "protein stability index": 1.95
  },
  {
    "mutation": "F14V",
    "protein stability index": 2.68
  },
  {
    "mutation": "K3T",
    "protein stability index": 2.2
  },
  {
    "mutation": "T4L",
    "protein stability index": 1.72
  },
  {
    "mutation": "D15K",
    "protein stability index": 1.79
  },
  {
    "mutation": "I17S",
    "protein stability index": 2.45
  },
  {
    "mutation": "S12W",
    "protein stability index": 2.17
  },
  {
    "mutation": "R9Y",
    "protein stability index": 2.09
  },
  {
    "mutation": "E6M",
    "protein stability index": 1.6
  },
  {
    "mutation": "K3I",
    "protein stability index": 1.68
  },
  {
    "mutation": "C20I",
    "protein stability index": 1.69
  },
  {
    "mutation": "N13W",
    "protein stability index": 1.93
  },
  {
    "mutation": "I19Y",
    "protein stability index": 2.16
  },
  {
    "mutation": "L7W",
    "protein stability index": 2.62
  },
  {
    "mutation": "S12F",
    "protein stability index": 1.74
  },
  {
    "mutation": "N13Q",
    "protein stability index": 2.44
  },
  {
    "mutation": "P21T",
    "protein stability index": 1.54
  },
  {
    "mutation": "R5D",
    "protein stability index": 2.62
  },
  {
    "mutation": "I19P",
    "protein stability index": 3.35
  },
  {
    "mutation": "E10N",
    "protein stability index": 2.98
  },
  {
    "mutation": "Y18N",
    "protein stability index": 3.56
  },
  {
    "mutation": "F24D",
    "protein stability index": 3.99
  },
  {
    "mutation": "P21K",
    "protein stability index": 2.32
  },
  {
    "mutation": "K3W",
    "protein stability index": 2.14
  },
  {
    "mutation": "F24K",
    "protein stability index": 3.36
  },
  {
    "mutation": "I17T",
    "protein stability index": 3.25
  },
  {
    "mutation": "K1N",
    "protein stability index": 2.12
  },
  {
    "mutation": "L7P",
    "protein stability index": 2.72
  },
  {
    "mutation": "E10T",
    "protein stability index": 2.83
  },
  {
    "mutation": "I17A",
    "protein stability index": 2.96
  },
  {
    "mutation": "E10Y",
    "protein stability index": 1.56
  },
  {
    "mutation": "R5I",
    "protein stability index": 1.83
  },
  {
    "mutation": "S12Q",
    "protein stability index": 2.54
  },
  {
    "mutation": "H8Y",
    "protein stability index": 1.56
  },
  {
    "mutation": "K1A",
    "protein stability index": 2.28
  },
  {
    "mutation": "K3L",
    "protein stability index": 1.71
  },
  {
    "mutation": "C20D",
    "protein stability index": 2.54
  },
  {
    "mutation": "S12Y",
    "protein stability index": 1.53
  },
  {
    "mutation": "R5H",
    "protein stability index": 2.88
  },
  {
    "mutation": "L7N",
    "protein stability index": 2.65
  },
  {
    "mutation": "D15V",
    "protein stability index": 2.11
  },
  {
    "mutation": "D15S",
    "protein stability index": 2.04
  },
  {
    "mutation": "E6F",
    "protein stability index": 1.86
  },
  {
    "mutation": "L7V",
    "protein stability index": 1.92
  },
  {
    "mutation": "S12M",
    "protein stability index": 1.55
  },
  {
    "mutation": "D15L",
    "protein stability index": 4.27
  }
]
